ASSAYED TARGET: Neuraminidase (Influenza A virus)
Sequence (B4URF0 whole entry): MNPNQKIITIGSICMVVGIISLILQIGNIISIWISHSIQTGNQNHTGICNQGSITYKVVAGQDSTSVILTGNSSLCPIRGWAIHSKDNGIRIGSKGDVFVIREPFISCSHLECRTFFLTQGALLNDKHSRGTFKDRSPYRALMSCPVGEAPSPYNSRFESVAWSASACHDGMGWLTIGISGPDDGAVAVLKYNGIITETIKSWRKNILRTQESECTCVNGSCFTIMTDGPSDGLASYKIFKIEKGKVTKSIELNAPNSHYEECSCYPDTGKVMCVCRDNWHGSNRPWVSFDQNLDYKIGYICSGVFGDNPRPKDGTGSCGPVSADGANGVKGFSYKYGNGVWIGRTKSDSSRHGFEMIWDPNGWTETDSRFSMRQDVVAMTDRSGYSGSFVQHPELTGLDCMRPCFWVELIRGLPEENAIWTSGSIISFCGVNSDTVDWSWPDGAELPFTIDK
EXPERIMENT: Inhibition of Influenza A virus (A/Sydney/5/97(H3N2)) recombinant neuraminidase using 2'-(4- methylumbelliferyl)-alpha-D-N-acetylneuraminic acid as substrate after 1 hr by fluorescence assay
Set-up: species or system Influenza A virus (A/Sydney/5/1997(H3N2))
Give IC50 for every item shown.

Note down IC50 recorded for "CC(=O)N[C@H]1[C@H]([C@H](O)[C@H](O)CO)OC(C(=O)O)=C[C@@H]1NC(=O)Nc1ccc(Cl)cc1"
> 1 mM

Note down IC50 recorded for "COc1cccc(NC(=S)N[C@H]2C=C(C(=O)O)O[C@@H]([C@H](O)[C@H](O)CO)[C@@H]2NC(C)=O)c1"
> 1 mM

Note down IC50 recorded for "CC(=O)N[C@H]1[C@H]([C@H](O)[C@H](O)CO)OC(C(=O)O)=C[C@@H]1NC(=S)Nc1ccccc1Br"
> 1 mM
